Listing: Relative potency of selected molecules
# Species on record: Mus musculus
# protocol: In vitro inhibition of electrically evoked contractions of MVD (Mouse vas deferens) relative to [Leu5]-enkephalin
# Assay type: functional
Note: the reply should be a number with no unit written.

| molecule | Relative potency |
| --- | --- |
| NC(=O)[C@H](Cc1ccccc1)NC(=O)[C@H](Cc1ccccc1)NC(=O)[C@@H]1CSCN1C(=O)[C@@H](N)Cc1ccc(O)cc1 | 0.0826 |
| NC(=O)[C@@H]1CCCN1C(=O)[C@@H](Cc1ccccc1)NC(=O)[C@@H]1COCN1C(=O)[C@@H](N)Cc1ccc(O)cc1 | 0.0112 |
| NC(=O)[C@@H]1CCCN1C(=O)[C@@H](Cc1ccccc1)NC(=O)[C@@H]1CSCN1C(=O)[C@@H](N)Cc1ccc(O)cc1 | 0.06 |

Sample NC(=O)[C@H](Cc1ccccc1)NC(=O)[C@H](Cc1ccccc1)NC(=O)[C@@H]1COCN1C(=O)[C@@H](N)Cc1ccc(O)cc1 — what was its Relative potency? 0.0755

Moving on to CC1(C)SC[C@@H](C(=O)N[C@H](Cc2ccccc2)C(=O)N2CCC[C@H]2C(N)=O)N1C(=O)[C@@H](N)Cc1ccc(O)cc1 0.00803

Another molecule to check: CC1(C)OC[C@@H](C(=O)N[C@@H](Cc2ccccc2)C(=O)N[C@@H](Cc2ccccc2)C(N)=O)N1C(=O)[C@@H](N)Cc1ccc(O)cc1 0.0188

Do the same for CC1(C)OC[C@@H](C(=O)N[C@H](Cc2ccccc2)C(=O)N2CCC[C@H]2C(N)=O)N1C(=O)[C@@H](N)Cc1ccc(O)cc1 please 0.0134

Where do the numbers come from? From ChEMBL document CHEMBL1134681.
